observation-type: melting point

Recorded results for 9 compounds are shown here.
1) CCOC(=O)Cc1c(C(=O)OCC)c(C)c(C(=O)c2ccc(Cl)cc2)n1C : 91 to 93 °C
2) CC(Oc1ccccc1)c1nnc(N)s1 (stereo not given) : 157 to 167 °C
3) CCCOc1cccc(C2(c3cc(C(=O)CC)n(CC)c3)N=C(N)N(C)C2=O)c1 (stereo not given) : 95 °C
4) Cn1cnc(-c2ccccc2)c1-c1ccncc1 : 161 to 162 °C
5) NS(=O)(=O)c1cc(S(N)(=O)=O)c(C(Cl)=C(Cl)Cl)cc1NCc1ccccc1 : 188 to 190 °C
6) CCC(C)(C)c1ccc(S(=O)(=O)Nc2ncnc(OCCOc3ccc(Br)cn3)c2-c2ccc(C)cc2)cc1 : 154 °C
7) Cc1nc(N)c2ncn(N(C)C)c2c1C : 205 to 207 °C
8) CC(C)(O)Cc1cccc2ccccc12 : 47 to 48 °C
9) O=C(CCl)c1ccc2c(c1)[C@H](NC(=O)C(F)(F)F)CC2 : 166 to 167 °C

The record that follows has no melting point shown yet.
For COC(=O)c1ccc(Cn2c(C=Cc3ccc(OC)c(OC)c3)nc3c(OC)c(C)c(C)c(OC)c32)cc1 , what is its reported melting point?
111 to 114 °C

----------
Each item that follows carries a reported melting point.

1. C=C(C)CN1Cc2cscc2Nc2ccccc21 : 83 to 84 °C
2. O=S(=O)(c1c(F)c(F)c(F)c(F)c1F)c1c(F)c(F)c(F)c(F)c1F : 129 °C
3. Nc1nc2ccccc2c2c1nc(-c1ccccc1)n2CCOc1ccccc1 : 182 to 185 °C
4. CCOC(=O)c1cn2c3c(cc(CN4CCOCC4)cc3c1=O)OCC2 : 216 to 218 °C
5. CCN1C(=O)C(C)(C)C(=O)N(C)c2cc(C(=O)O)ccc21 : 296 to 299 °C

Request the reported melting point associated with CN(C)C=CC(=O)c1cccc(C(F)(F)F)c1
60.5 to 62 °C

Can you look up the measured melting point of c1cnc2c(N3CCC(N4CCN(c5cccc6[nH]ccc56)CC4)CC3)cccc2c1 for me?
256 °C

Which melting point value is on record for O=c1cccccc1N1CCN(c2cccc(C(F)(F)F)c2)CC1 ?
112 to 114 °C

Query: melting point; subject: N#Cc1c[nH]c2cc(F)c(OCc3ccccc3)cc2c1=O
> 250 °C

What value of measured melting point is listed for COc1ccccc1Sc1c(Cl)ncnc1Cl ?
103 °C

Report melting point for Cc1cccnc1C(CO)COc1ccc([N+](=O)[O-])cc1 (stereo not given) please.
135 to 136 °C

Can you share its melting point? I mean this compound: Cc1cc(C)c2c(c1O)C(NCc1cc(C(C)(C)C)c(O)c(C(C)(C)C)c1)CC2 (stereo not given)
154 to 155 °C

May I ask what melting point has been recorded for CCOC(=O)c1cc(NCc2ccccc2)c(Oc2cccc(C(F)(F)F)c2)c(S(N)(=O)=O)c1 ?
166 to 168 °C

Please look up its melting point: COc1ccc(C(C#Cc2ccccc2)Cc2noc(C)n2)cc1OC1CCCC1 (racemic)
86 to 90 °C

Would you kindly share the measured melting point for CCOC(=O)c1cc(O)c(C(=O)c2ccc(Cl)cc2)c([N+](=O)[O-])c1 ?
188 to 192 °C

For the compound shown here, COC(=O)c1sc2ccc(SC)cc2c1N(C)C , give the reported melting point.
63 to 66 °C

Need melting point of Cn1c2c(c3cc(OCc4ccccc4)ccc31)CC(CCN)C2 (stereo not given) , thanks.
72 to 75 °C

Form field: reported melting point of CC1=NN(CCCn2ccnc2)Cc2cc3ccccn3c21
162 to 163 °C

Could you share which melting point value was measured for CCOc1cc(-c2cc(C(F)(F)F)n3ncc(C(=O)Nc4cccc(S(C)(=O)=O)c4)c3n2)ccc1C(F)(F)F ?
215 °C

Requested read-out: melting point. Entry: O=C1CC(c2cccc(-c3nc(CCl)co3)c2)=Nc2ccc(-n3cccc3)cc2N1
206 to 207 °C
